Taken from PubChem BioAssay (NCATS).

assay: qHTS Assay for Identifying Gametocytocidal Compounds (AID 743244);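 note: % is set by controls: 0 for no effect and ±100 for the full control effect; actives lower the fluorescent signal which means gametocytes are killed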; conditions: P. falciparum 3D7 stage III-V gametocytes, alamarBlue, 72 h; hits give low values
Records with an inconclusive call do not appear.
measurement.name: max response (%)
Entry rule: numbers only, all in %.

Recorded results for 5 compounds are shown here.
CC#CCC(C)[C@H](O)/C=C/[C@@H]1[C@H]2C/C(=C/CCCC(=O)O)C[C@H]2C[C@H]1O (stereo partly specified) :: 11.1
NC(=O)C[C@@H](N)C(=O)O :: -9.98
CCOC(=O)[C@H](CCc1ccccc1)N[C@H]1CCCN2CCC[C@@H](C(=O)O)N2C1=O :: -15.1
CCN(CC)c1ccc(N=Nc2ccc(S(=O)(=O)N(C)C)cc2)c(S(=O)(=O)NCC[n+]2ccccc2)c1 :: 1.66
CCOC(=O)Nc1ccc2c(c1)N(C(=O)CN(C)C)c1ccccc1CC2 :: 6.79

Shifting focus to the compound that follows.
## Input Return reported max response; argument: CCCCCCCCCCCCCCCC(=O)OCCC1CCN(CCCN2c3ccccc3Sc3ccc(S(=O)(=O)N(C)C)cc32)CC1
## Output -11.1

* * *

system: HaCat; test: Cytotoxic Profiling of Annotated Libraries Using Quantitative High-Throughput Screening (AID 1296008); settings: Five cell lines viability, CellTiter-Glo ATP luminescence, 48-72 h; hits give low values; note: % is set by controls: 0 for no effect and ±100 for the full control effect; nearly all actives have a fitted effect of over 60% in size
Records with an inconclusive call do not appear.
Quick reference: max response of the listed items.
Entry rule: numbers only, all in %.

Recorded results for 2 compounds are shown here.
C=C1CC2OC(=O)C(COC)C2C(OC(=O)/C(C)=C\C)CC2(C)OC1=CC2=O (stereo not given) :: -10.4
C=CC(C)(O)CC/C=C(/C)COC(=O)C(C)C1CCC(C)(C=C)O1 (stereo not given) :: 3.72

## Input Return reported max response; argument: O=C(NCCCc1ccccc1)C1CCC(CNS(=O)(=O)c2cccc3nsnc23)CC1 (stereo not given)
## Output -4.58

## Input Again, but for COc1ccccc1N1CCN(CC[C@@](C)(C(=O)C2CCCCC2)c2ccccc2)CC1
## Output -16.7

## Input Again, but for C=C1[C@H]2CC[C@H](C(=O)O)[C@@]23CC[C@H](C3)C1(C)C
## Output -74.2

## Input Again, but for O=C(NCCN1CCN(c2cccc3ccc(O)cc23)CC1)c1ccc(F)cc1
## Output -4.85

## Input Again, but for C=C(C)C(=O)OC1CC(CO)CCC/C(CO)=C/C2OC(=O)C(=C)C21 (stereo not given)
## Output 1.02

## Input Again, but for CCC(=C(c1ccc(OCCN2CCCC2)cc1)c1ccc(OCCN2CCCC2)cc1)c1ccccc1
## Output -11

## Input Again, but for CN1CCN(Cc2ccc(NC(=O)Cc3ccc(Oc4cc(NC(=O)C5CC5)ncn4)cc3)cc2C(F)(F)F)CC1
## Output -122

## Input Again, but for O=C(COc1ccc(C(=O)c2ccccc2)cc1)NC1CCN(Cc2ccccc2)CC1
## Output -11.4

## Input Again, but for CC(C)=CCCC1(C)C2CCC1(C)C(O)C2 (stereo not given)
## Output -23

## Input Again, but for C/C(=C/CO)CCC1C(C)CCC2C(C)(C)CCCC12C (stereo not given)
## Output -18.8

## Input Again, but for Nc1nc2c(cnn2CCCc2ccc(O)cc2)c2nc(-c3ccco3)nn12
## Output -2.77

## Input Again, but for COc1ccc(C2Oc3c(OC)cc(CCCO)cc3C2COC2OC(CO)C(O)C(O)C2O)cc1OC (stereo not given)
## Output 1.52

## Input Again, but for Cc1cc(-c2cnc(N)c3c(-c4ccc5scnc5c4)csc23)n(C)n1
## Output -13.1

* * *

system: CRL-7250; assay: Cytotoxic Profiling of Annotated Libraries Using Quantitative High-Throughput Screening (AID 1296008); details: Five cell lines viability, CellTiter-Glo ATP luminescence, 48-72 h; hits give low values; note: % is set by controls: 0 for no effect and ±100 for the full control effect; nearly all actives have a fitted effect of over 60% in size
Inconclusive results are not listed.
Quick reference: max response of the listed items.
Entry rule: numbers only, all in %.

Recorded results for 5 molecules are shown here.
CC1=C(C(=O)OC2CCCCC2)C(c2ccc([N+](=O)[O-])cc2)C2=C(CC(C)(C)CC2=O)N1 (configuration not stated) :: 1.32
Cc1cn2c(n1)Cc1ccc(Cl)cc1C(c1ccc(N)cc1)=N2 :: -3.82
CC(C)=CCCC1(C)/C=C/C(OC(=O)C=C(C)C)C(C)(O)/C=C/C(=O)/C(CO)=C\C1 (configuration not stated) :: -29.1
O=C(Nc1ccccc1C(=O)Nc1ccc(CCO)cc1)c1ccc([N+](=O)[O-])cc1 :: -0.113
CN1CCN(c2ccc(-c3cccc(CN4CCOCC4)c3)cc2NC(=O)c2c[nH]c(=O)cc2C(F)(F)F)CC1 :: -6.65

## Input Return reported max response; argument: O=C(NCC(=O)N1CCCC1)Nc1ccc2cnccc2c1
## Output -0.26

## Input Again, but for Fc1ccc(-c2nc(-c3c(F)cccc3F)[nH]c2-c2ccncc2)cc1
## Output -5.53

* * *

test system: KB-3-1; test: Cytotoxic Profiling of Annotated Libraries Using Quantitative High-Throughput Screening (AID 1296008); conditions: Five cell lines viability, CellTiter-Glo ATP luminescence, 48-72 h; hits give low values; note: % is set by controls: 0 for no effect and ±100 for the full control effect; nearly all actives have a fitted effect of over 60% in size
Records with an inconclusive call do not appear.
Quick reference: max response of the listed items.
Entry rule: numbers only, all in %.

Recorded results for 5 compounds are shown here.
Nc1nc2c(ncn2C2OC3COP(=O)(O)OC3C2O)c(=O)[nH]1 (stereo not given) :: 9.92
O=C(CCCN1CCC(n2c(=S)[nH]c3ccccc32)CC1)c1ccc(F)cc1 :: 8.28
C=C1C(=O)OC2C=C(C)CC/C=C(\CO)CC(O)C12 (stereo not given) :: 5.92
CNC(C)C(=O)NC(C(=O)N1CCCC1C(=O)Nc1snnc1-c1ccccc1)C1CCCCC1 (stereo not given) :: 3.39
CCCNCCc1ccc(NS(=O)(=O)c2ccc(OC(F)(F)F)cc2)cc1 :: -2.39

## Input Return reported max response; argument: C[C@H](CSC(=O)c1ccccc1)C(=O)N1C[C@@H](Sc2ccccc2)C[C@H]1C(=O)O
## Output -1.05

## Input Again, but for Nc1nc2c(cnn2CCCc2ccc(O)cc2)c2nc(-c3ccco3)nn12
## Output 8.63

* * *

system: CAOV3; test: Primary qHTS to identify gynecologic anti-cancer compounds using libraries of approved drugs and bioactive compounds (AID 1345084); conditions: Gynecologic cancer cell panel viability, ATPlite luminescence, 48 h; series mostly up to 57.5 µM; note: nearly all actives have a fitted effect of over 55% in size
Records with an inconclusive call do not appear. Activity calls are given as the source filed them. Calls follow the shape of the dose curve; as a rule, active = well fitted cell-killing curve with a large enough effect; inconclusive = small, poorly fitted or top-dose-only effect, or effect the other way; inactive = flat fitted curve, though single readings scatter.
Just give me one of these, please: YES = active, NO = inactive

## Input I would be grateful if you could indicate the recorded call for COC(=O)C[C@H]1C(C)(C)[C@H](OC(=O)c2ccccc2)C2CC3=C4CC(=O)O[C@@H](c5ccoc5)[C@]4(C)CCC3[C@@]1(C)C2=O (stereo partly drawn) .
## Output NO

## Input Again, but for COc1ccc2cc(-c3cc(-c4cc(Cl)cc(Cl)c4)nn3C(C)c3ccc(C(=O)NCCC(=O)O)cc3)ccc2c1 (stereo not drawn)
## Output NO

## Input Again, but for COc1c(C(O)CC(C)C)ccc2c1C(=O)OCc1cc(C)cc(O)c1O2 (stereo not drawn)
## Output NO

## Input Again, but for Cc1ccnc(NC(=O)C(C)c2cccc(C(=O)c3ccccc3)c2)c1 (stereo not drawn)
## Output NO

## Input Again, but for C=C1CCC2[C@](C)(CCC[C@@]2(C)C=O)[C@H]1CC/C(C)=C/CO (stereo partly drawn)
## Output NO

* * *

tested on: HeLa; experiment: Primary qHTS to identify gynecologic anti-cancer compounds using libraries of approved drugs and bioactive compounds (AID 1345084); details: Gynecologic cancer cell panel viability, ATPlite luminescence, 48 h; series mostly up to 57.5 µM; note: nearly all actives have a fitted effect of over 55% in size
Records with an inconclusive call do not appear. Active and inactive are the calls of the source. The call rests on the fitted dose curve; in most records, active means well fitted cell-killing curve with a large enough effect; inconclusive means small, poorly fitted or top-dose-only effect, or effect the other way; inactive means flat fitted curve, though single readings scatter.
Just give me one of these, please: Yes = active, No = inactive

Solved cases below.
COc1cc(C[C@H]2C(=O)OC[C@@H]2Cc2ccc(OC)c(OC)c2)ccc1O :: No
COCCCNC(=O)c1ccc(Cn2c(=O)c3ccccc3n(Cc3ccc(C(C)C)cc3)c2=O)cc1 :: No
C/C(=C/C=C\C=C\Cc1cnco1)[C@@H](O)C(C)(C)C(N)=O :: No
COC1CC(O[C@H]2CC[C@]3(C)C4CC[C@]5(C)C(C6=CC(=O)OC6)=CCC56OC46CC[C@@H]3C2)OC(C)C1O[C@@H]1O[C@H](CO[C@@H]2O[C@H](CO)[C@@H](O)[C@H](O)[C@H]2O)[C@@H](O)[C@H](O)[C@H]1O (some centres undefined) :: Yes

Let's switch to this compound now.
## Input I would be grateful if you could indicate the recorded call for CCCn1ncc(CN2CCCC(C(=O)c3cccc(OC(C)C)c3)C2)c1C (centres undefined) .
## Output No

* * *

molecular target: Cytochrome P450 2D6 (Homo sapiens); assay: Cytochrome P450 family 2 subfamily D member 6 (CYP2D6) small molecule antagonists: luciferase biochemical (cell-free) qHTS assay (AID 1645840); conditions: P450-Glo CYP2D6 enzyme, luciferin luminescence, 1 h; series mostly up to 57.4 µM; note: potency is the fitted concentration of half-maximal effect; nearly all actives have a fitted effect of over 55% in size
Records with an inconclusive call do not appear. Activity calls are given as the source filed them. Calls come from the whole dose curve; as a rule, active = well fitted inhibition curve with a large enough effect in the repeat runs; inconclusive = weak or mixed curves; inactive = flat fitted curve, though single readings scatter.
measurement.name: Potency

CN1CCN(C(=O)CN[C@@H]2C[C@H]2c2ccc(OCc3ccccc3)cc2)CC1 :: 10.7 µM (active)

Shifting focus to the compound that follows.
## Input Return reported Potency; argument: O=C(Nc1ccc(Cl)cc1)C1CCCN(C(=O)c2cccc(-c3ccco3)c2)C1 (stereo not drawn)
## Output 13.5 µM (active)
